Reported Kd is given for each of the following binders.
# target.desc: T1, BoNT/B1 (Clostridium botulinum, UniProt P10844 2-1291)
# T1 sequence: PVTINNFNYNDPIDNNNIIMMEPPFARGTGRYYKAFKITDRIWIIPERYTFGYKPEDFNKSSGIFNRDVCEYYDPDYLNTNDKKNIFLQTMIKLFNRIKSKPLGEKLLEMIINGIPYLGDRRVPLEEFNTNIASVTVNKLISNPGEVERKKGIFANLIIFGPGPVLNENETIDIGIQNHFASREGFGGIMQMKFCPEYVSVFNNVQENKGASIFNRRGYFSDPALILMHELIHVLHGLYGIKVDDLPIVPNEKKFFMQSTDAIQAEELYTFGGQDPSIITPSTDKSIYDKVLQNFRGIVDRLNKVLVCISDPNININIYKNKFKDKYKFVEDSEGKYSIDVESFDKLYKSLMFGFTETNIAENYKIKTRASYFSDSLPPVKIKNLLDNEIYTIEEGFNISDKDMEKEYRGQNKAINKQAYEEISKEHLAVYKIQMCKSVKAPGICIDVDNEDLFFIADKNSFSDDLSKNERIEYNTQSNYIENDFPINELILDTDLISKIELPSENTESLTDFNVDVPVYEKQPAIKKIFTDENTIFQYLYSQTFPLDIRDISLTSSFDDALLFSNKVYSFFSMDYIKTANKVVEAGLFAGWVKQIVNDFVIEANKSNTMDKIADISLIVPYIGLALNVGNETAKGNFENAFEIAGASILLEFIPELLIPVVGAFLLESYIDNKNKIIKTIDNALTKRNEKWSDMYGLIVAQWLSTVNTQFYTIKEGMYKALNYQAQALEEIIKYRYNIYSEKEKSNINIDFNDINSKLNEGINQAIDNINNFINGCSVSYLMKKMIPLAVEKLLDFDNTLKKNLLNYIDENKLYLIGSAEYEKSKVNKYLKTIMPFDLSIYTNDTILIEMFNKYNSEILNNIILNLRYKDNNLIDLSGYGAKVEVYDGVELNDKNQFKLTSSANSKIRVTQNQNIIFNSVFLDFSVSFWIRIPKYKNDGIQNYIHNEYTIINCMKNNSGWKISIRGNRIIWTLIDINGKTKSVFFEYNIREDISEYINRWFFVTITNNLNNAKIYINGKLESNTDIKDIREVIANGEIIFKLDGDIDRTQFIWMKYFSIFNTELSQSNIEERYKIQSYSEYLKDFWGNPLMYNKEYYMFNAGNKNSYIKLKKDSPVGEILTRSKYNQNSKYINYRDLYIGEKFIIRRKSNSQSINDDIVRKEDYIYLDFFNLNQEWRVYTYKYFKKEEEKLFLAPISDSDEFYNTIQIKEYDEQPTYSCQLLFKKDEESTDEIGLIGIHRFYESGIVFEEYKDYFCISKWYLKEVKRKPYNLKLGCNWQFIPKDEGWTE
# experiment: flow cytometry, yeast-displayed scFv, soluble toxin
Dear colleague, please return just the value in nM, with no unit written.

| binder | unit.tag | Kd |
| --- | --- | --- |
| 1B11 scFv (scFv) QVQLLQSAGGVVQPGRSLRLSCAASGFIFRTYGMHWVRQAPGKGLEWVAFVSSDGNNKFYSDSVKGRFTIPRDNAKNTLYLQMNSLETEDTAVYYCAKDRYPIDCSGGSCFSYGMDVWGQGTTVTVSSGGGGSGGGGSGGGGSDIVMTQSPSTLSASVGDRVTVTCRASQSINSWLAWYQQKPGKAPKLLIYEASSLESGVPSRFSGSGSGTEFTLTISSLQPDDFATYYCQQYDSYWLTFGGGTKVEIK | nM | 2.6 |
| 1B10 scFv (scFv) scFv: QVQLVESGGGVVQPGRSLRLSCAASGFTFSHYGMHWVRQSPGKGLEWVAVIWYDGRNPYYAASVKGRFTISRDNDKNTLYLQMNSLRAEDTAVYYCVKDLTRFHDTTFGVFEMWGPGTTVTVSSGGGGSGGGGSGGGGSEIVLTQSPSSLSASVGDRITITCRASQSISSWLAWYQQKPGKAPMVLIYKASSLENGVPSRFSGSGSGTEFTLTISSLQPDDFATYYCQQYSTYSRTFGQGTKVEIK | nM | 11.2 |

We now examine a further binder.
Prompt: Item 2B30 scFv (scFv) scFv: EVQLVESGGGVVQPGRSLRLSCAASGFTFRRNAIHWVRQAPGKGLEWVAVISYDGVNKYYAASVKGRFAISRDNAKNTLFLQMNSLRPEDSAIYYCARDVSEYGDYVGHFDYWGQGTLVTVSSGGGGSGGGGSGGGGSSYELMQLPSASGTPGQRVSISCSGSSSNIGSNPVNWYQQLPGTAPKLLIYSNNHRPSGVPDRFSGSKSGTSASLAISGLQSEDEADYYCAAWDGSLNGHVVFGGGTKLTVL has what recorded Kd?
Completion: 0.37
